Please go through the items and note down their pKd.
Target: T1, Programmed cell death protein 1 (PD-1), human (human, UniProt Q15116 25-167, limits assumed)
T1 construct: also called full-length PD-1
T1 sequence (Q15116 25-167 limits assumed): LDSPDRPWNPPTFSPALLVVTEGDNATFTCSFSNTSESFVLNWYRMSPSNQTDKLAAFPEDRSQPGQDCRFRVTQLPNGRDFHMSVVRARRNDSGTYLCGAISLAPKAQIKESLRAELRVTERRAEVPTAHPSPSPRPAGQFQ
Test: SPR avidity measurement (mimic cell surface PD-1 clusters), response in nm, three traces
Give bare numbers, as −log10 of the molar value.

Entry 1-F12-1 (antibody, V domains shown, From the in vitro scFv library of immunised mice) VH: EVQLQQPGAELVRPGTSVKLSCKASGYTFTSYWMHWVKQRPGQGLEWIGVIDPSDSYTQYNQKFKGKATLTVDTSSSTAYMQLSSLTSEDSAVYYCARSPFDYWGQGTTVTVSS VL: DIVMTQSHKFMSTSVGDRVSITCKASQDVSTAVAWYQQKPGQSPKALIYSASYRYSGVPDRFTGSGSGTDFTLTISNVQAEDLAVYYCHQHNTYPFTFGGGTKLEIK ; pKd = 9.01

// pKd lookup, binder = 1-C09-1 (antibody, V domains shown, From the in vitro scFv library of immunised mice) VH: QVQLQQPGTELVRPGTSVKMSCKASGYTFTSYWMHWVKQRPGQGLEWIGVIDPSDSYTQYNQKFKGKATLTVDTSSSTAYMQLSSLTSEDSAVYYCARSPFDYWGQGTTLTVSS VL: DIVMTQSQKFMSTSVGDRVSVTCKASQNVGTNVAWYQQKPGQSPKALIYSASYRYSGIPDRFTGSGSGTDFTLTISNVQSEDLADFFCQQYNSYPFTFGGGTKLEIK , result: 8.43

Briefly, pKd measured for 1-H01-1 (antibody, V domains shown, From the in vitro scFv library of immunised mice; also called clone 1-H01-1) VH: QVQLQQPGAELVKPGASVKMSCKASGYTFTSYWMHWVKQRPGQGLEWIGVIDPSNSYTIYNQKFKGKATLTVDTSSSTAYMQLSSLTSEDSAVYYCARSPFDYWGQGTTLTVSS VL: DVVMTQSQKFMSTSVGDRVSVTCKASQNVGTNVAWYQQKPGQSPKALIYSASYRYSGVPDRFTGSGSGTDFTLTIRNVQSEDLAEYFCQQHNSYPFTFGGGTKLEIK : 9.36

Further cases:
pKd reading for 1-F09-1 (antibody, V domains shown, From the in vitro scFv library of immunised mice) VH: QVQLQQPGAEVVMPGASVKLSCKASGYTFTSYWMHWVKQRPGQGLEWIGVIDPSDSYTQYNQKFKGKATLTVDTSSSTAYMQLSSLTSEDSAVYYCARSPFDYWGQGTTLTVSS VL: DIQMNQSHKFMSTSVGDRVSITCKASQDVSTAVAWYQQKPGQSPKALIYSASNRYSGVPDRFIGSGSGTDFTLTIRNVQSEDLAEYFCQQHNSYPFTFGGGTKLEMK : 9.34
